- Test system: HCT-116 colon
- EXPERIMENT DESCRIPTION: NCI-60 one-dose screen, 48 h
- EXPERIMENTAL CONDITIONS: 10 µM unless noted
This is part of a sample that, as a whole, favours compounds with a hit. Of some 83,000 tested, about 20% had one in any assay. Calls of active or inactive are those of the source. How the source made its calls: active means growth percent below 10; inactive means the rest.
Thanks in advance; please answer with one of these: 1.0 (active), 0.0 (inactive)

Field: example entries. Status: answers known.
{"COMPOUND": "CC1=CCc2ccccc21", "LABEL": 0.0}
{"COMPOUND": "COc1ccc(C(=O)/C=C/c2ccccn2)c(O)c1", "LABEL": 0.0}
{"COMPOUND": "CN(C)CCOc1ccc(/C(=C(/CCCl)c2ccccc2)c2ccccc2)cc1", "LABEL": 1.0}
{"COMPOUND": "C=C(C)C1CCC2(C(=O)O)CCC3(C)C(CCC4C5(C)CCC(OC(=O)NCc6ccccc6)C(C)(C)C5CCC43C)C12 (stereo not given)", "LABEL": 0.0}
{"COMPOUND": "COc1ncc(-c2ccc3nc(N)n(-c4ccccc4C(F)(F)F)c(=O)c3c2)cc1S(=O)(=O)Nc1ccc(F)cc1F", "LABEL": 0.0}
{"COMPOUND": "O=C(NNc1ccc(-c2ccccc2)nn1)c1ccc(F)cc1", "LABEL": 0.0}
{"COMPOUND": "COc1cc(/C=C/C(=O)/C=C/c2ccc(-n3ccnc3)cc2)ccc1O", "LABEL": 0.0}
{"COMPOUND": "Cc1cc(SC#N)ncn1", "LABEL": 0.0}

Continue with the next compound.
Input: Name the outcome recorded for `COC(=O)[C@]12CCC(C)(C)C[C@H]1C1=CC[C@@H]3[C@@]4(C)C/C(=C/c5cccnc5)C(=O)C(C)(C)[C@@H]4CC[C@@]3(C)[C@]1(C)CC2` in the assay.
Output: 1.0

====

- Test system: SK-MEL-5 melanoma
- EXPERIMENT DESCRIPTION: NCI-60 one-dose screen, 48 h
- EXPERIMENTAL CONDITIONS: 10 µM unless noted
Compounds without any hit were thinned out: in the full panel of roughly 83,000, 20% have a hit. Active and inactive are the calls of the source. How the source made its calls: active means growth percent below 10; inactive means the rest.
Thanks in advance; please answer with one of these: true (1) (active), false (0) (inactive)

Field: example entries. Status: answers known.
{"COMPOUND": "ClC1=C(Cl)C(Cl)=C(Cl)C1=Cc1ccccc1", "LABEL": "true (1)"}
{"COMPOUND": "CCOC(=O)c1sc2nc(-c3cc(OC)c(OC)c(OC)c3)nc(N3CCOCC3)c2c1C", "LABEL": "true (1)"}
{"COMPOUND": "Nc1cccc2c1C(=O)c1cccc(NC(=O)c3ccccc3)c1C2=O", "LABEL": "false (0)"}
{"COMPOUND": "c1nc(N2CCOCC2)c2[nH]ccc2n1", "LABEL": "false (0)"}
{"COMPOUND": "Cc1cc(C)c(O)c(CNCCCCCCNCc2cc(C)cc(C)c2O)c1", "LABEL": "true (1)"}
{"COMPOUND": "Cc1ccc(Oc2c(/C=N/NC(=O)Cn3c(=O)sc4ccccc43)c(C)nn2-c2ccccc2)cc1", "LABEL": "false (0)"}

Input: Name the outcome recorded for `CCc1ccc(C2=C/C(=C/c3ccccc3)C(=O)N2CCc2ccc(S(N)(=O)=O)cc2)cc1` in the assay.
Output: false (0)

Input: Name the outcome recorded for `Cc1cc(NN=C(c2ccc(O)cc2)c2ccc(O)cc2)c([N+](=O)[O-])cc1[N+](=O)[O-]` in the assay.
Output: false (0)

Input: Name the outcome recorded for `O=C(CCCSc1nc(-c2ccccc2)cc(-c2ccccc2)n1)NO` in the assay.
Output: true (1)

Input: Name the outcome recorded for CCOC(=O)c1nn(C2CCCCO2)c2ccc(NC(=O)CN3CCOCC3)cc12 (stereo not given) in the assay.
Output: false (0)
